Test system: RPMI-8226 leukemia
experiment-summary: NCI tumour cell line growth inhibition, 48 h; in the data active = GI50 below about 0.43 µM; inactive = the rest
Classes to choose from: True (active), False (inactive)

compound	category-label
COc1ccc2sc3c(NCCCN)nc4ccccc4c3c(=O)c2c1	False
c1ccc(-c2[nH]ncc2-c2ccnc(-c3ccc(OCCn4ccnc4)cc3)c2)nc1	False
N#Cc1nc2c(S(=O)(=O)c3ccc(Cl)cc3)c(N)n(Nc3cccc(Cl)c3)c2nc1C#N	True
Cc1c(C(=N)C(C#N)C#N)c(=N)oc2c1ccc1ccccc12	False
Cc1ccc2c(-c3ccnc(Nc4ccc5c(c4)OCCO5)n3)c(-c3ccc(C(F)(F)F)cc3)nn2n1	False
O=C(NCCNCCO)c1ccc2c(c1)oc1cc3ccccc3c(=O)n12	False

Input: Called result for Cc1cccc(NC(=O)c2sc3nc4c(cc3c2N)C(=O)CCC4)c1
Output: False

Input: Called result for Nc1ncnc2c1N=C(c1ccc3c(c1)OCO3)CC(c1ccc(Cl)cc1)N2 (stereo not given)
Output: False

Input: Called result for O=C(Nc1cccc(-n2cc(-c3ccncc3)c(-c3cc(O)cc(Cl)c3)n2)c1)c1ccc(N2CCOCC2)c(C(F)(F)F)c1
Output: True

Input: Called result for COc1cc2c(N3CCN(C(=O)Nc4ccc(OC(C)C)cc4)CC3)ncnc2cc1OCCCN1CCCCC1
Output: False

Input: Called result for CCNc1nc(O)c(/C=C2\C=Nc3ncccc32)s1
Output: False

Input: Called result for CN(C)CCCC1(c2ccc(F)cc2)OCc2cc(-c3cccc4[nH]ccc34)ccc21 (stereo not given)
Output: False

Input: Called result for CN[C@@H](C)C(=O)N[C@H]1CN(S(=O)(=O)c2cccc(S(=O)(=O)N3CC[C@H]4CC[C@@H](C(=O)NC(c5ccccc5)c5ccccc5)N4C(=O)[C@@H](NC(=O)[C@H](C)NC)C3)c2)CC[C@H]2CC[C@@H](C(=O)NC(c3ccccc3)c3ccccc3)N2C1=O
Output: False

Input: Called result for CC(C)(CO)CNC(=O)c1ccc2[nH]c(O)c(N=Nc3ccc(S(N)(=O)=O)cc3)c2c1
Output: False

Input: Called result for CCN(CC)Cc1cc(Nc2nc(NC3CCC(N(C)C)CC3)c3ccccc3n2)ccc1OC (stereo not given)
Output: False
